Biological target: UniProt P56718
Sequence (P56718 whole entry): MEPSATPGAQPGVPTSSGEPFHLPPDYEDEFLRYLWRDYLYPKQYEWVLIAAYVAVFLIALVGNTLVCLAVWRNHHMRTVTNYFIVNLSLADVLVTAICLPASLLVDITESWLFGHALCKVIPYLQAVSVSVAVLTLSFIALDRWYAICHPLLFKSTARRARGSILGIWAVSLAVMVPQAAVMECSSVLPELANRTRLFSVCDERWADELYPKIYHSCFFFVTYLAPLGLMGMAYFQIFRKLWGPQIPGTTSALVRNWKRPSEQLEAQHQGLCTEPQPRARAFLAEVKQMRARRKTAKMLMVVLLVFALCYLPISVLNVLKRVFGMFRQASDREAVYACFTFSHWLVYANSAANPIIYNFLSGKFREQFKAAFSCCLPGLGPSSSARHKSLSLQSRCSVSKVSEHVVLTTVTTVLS
Assay: Rat orexin 1 receptor radioligand binding (competitive binding, HEK293 membranes)
quantity measured: pKi
Answers are plain numbers, as −log10 of the molar value.

Below are worked cases with known answers.
>>> observed_measurement("O=C(c1cccc(F)c1-c1ncccn1)N1C2CCC1C(Oc1ccc(C(F)(F)F)cn1)C2 (racemic)")
7.11
>>> observed_measurement("O=C(c1ccccc1-n1nccn1)N1C2CCC1C(Oc1ccc(C(F)(F)F)cn1)C2 (racemic)")
6.69
>>> observed_measurement("Cc1cccc(C(=O)N2C3CCC2C(Oc2ccc(C(F)(F)F)cn2)C3)c1-c1ncco1 (racemic)")
7.30
>>> observed_measurement("Cc1cnc(-n2nccn2)c(C(=O)N2C3CCC2C(Oc2ccc(C(F)(F)F)cn2)C3)c1 (racemic)")
5.96
>>> observed_measurement("O=C(c1cccc(F)c1-c1ncc(F)cn1)N1C2CCC1C(Oc1ccc(C(F)(F)F)cn1)C2 (racemic)")
6.87
>>> observed_measurement("O=C(c1cccc(F)c1-n1nccn1)N1C2CCC1C(Oc1ncc(Br)cn1)C2 (racemic)")
5.82

Provide pKi for all items below, preserving their order.
1. O=C(c1ccccc1-c1ncc(F)cn1)N1C2CCC1C(Oc1ccc(C(F)(F)F)cn1)C2 (racemic)
2. O=C(c1c(F)cccc1-c1ncccn1)N1C2CCC1C(Oc1ccc(C(F)(F)F)cn1)C2 (racemic)

[A]
6.97
6.84

Provide pKi for all items below, preserving their order.
1. [2H]C1(Nc2cnc(C(F)(F)F)cn2)CC2CCC1N2C(=O)c1cccc(F)c1-c1ncccn1 (stereo not drawn)
2. O=C(c1cccc(F)c1-c1ncccn1)N1[C@H]2CC[C@@H]1[C@@H](Nc1cnc(C(F)(F)F)cn1)C2
3. O=C(c1cccnc1-n1nccn1)N1C2CCC1C(Oc1ccc(C(F)(F)F)cn1)C2 (racemic)
4. Cc1ccc(C(=O)N2C3CCC2C(Oc2ccc(C(F)(F)F)cn2)C3)c(-n2nccn2)n1 (racemic)
5. O=C(c1cccc(F)c1-c1ncccn1)N1[C@@H]2CC[C@H]1[C@H](Nc1ccc(C(F)(F)F)cn1)C2
6. Cc1cccc(C(=O)N2C3CCC2C(Oc2cnc(C(F)(F)F)cn2)C3)c1-n1nccn1 (racemic)

[A]
1: 7.77; 2: 6.40; 3: 5.27; 4: 6.25; 5: 7.74; 6: 6.78
